We begin with a simple list: items and their reported growth.
System: MDA-MB-231 breast
PROTOCOL_SUMMARY: NCI-60 one-dose screen, 48 h (100 = growth as untreated, 0 = no growth, -100 = all killed)
DETAILS: 10 µM unless noted
Compounds without any hit were thinned out: in the full panel of roughly 83,000, 20% have a hit.
MEASURE: growth (%)

record_smiles=C[C@]12CC[C@@H]3c4ccc(O)c([N+](=O)[O-])c4CC[C@H]3[C@@H]1CC[C@@H]2NS(=O)(=O)c1ccc(C(F)(F)F)cc1 unit_abbrev=% observed_measurement=-9.58
record_smiles=O=C(/C=C/c1ccc(Cl)cc1)c1ccccc1 unit_abbrev=% observed_measurement=119
record_smiles=Nc1ccc(S(=O)(=O)Nc2ncccn2)cc1 unit_abbrev=% observed_measurement=98.6

---

System: HCT-15 colon
PROTOCOL_SUMMARY: NCI-60 one-dose screen, 48 h (100 = growth as untreated, 0 = no growth, -100 = all killed)
DETAILS: 10 µM unless noted
Compounds without any hit were thinned out: in the full panel of roughly 83,000, 20% have a hit.
Let's look at some compounds and their measured growth.
MEASURE: growth (%)

compound=CCCCCCCC/C=C\CCCCCCCCOc1ccccc1CC(=O)NCC[N+]1(C)CCCC1 observed_measurement=104
compound=Nc1ccc2c3c(cccc13)-c1ccccc1-2 observed_measurement=86.1
compound="C[N+]1(CCC[N+]2(C)C[C@@H]3[C@H](C2)[C@@H]2C=C[C@H]3C2)CCOCC1 (stereo partly drawn)" observed_measurement=91.4

---

Tested on: NCI-H226 lung
PROTOCOL_SUMMARY: NCI-60 one-dose screen, 48 h (100 = growth as untreated, 0 = no growth, -100 = all killed)
DETAILS: 10 µM unless noted
The panel holds about 83,000 compounds, 20% with a hit somewhere; the sample as a whole holds those more often.
MEASURE: growth (%)

compound=O=C(/C=C/c1cc2ccccc2[nH]c1=O)c1ccc(Cl)cc1 measured_on="NCI-H226 lung" unit_abbrev=% observed_measurement=40.7
compound=COc1ccc(COC(C)=O)cc1 measured_on="NCI-H226 lung" unit_abbrev=% observed_measurement=104
compound=CCCCOc1ccc(C(C)(C)c2ccc(OCCCC)cc2)cc1 measured_on="NCI-H226 lung" unit_abbrev=% observed_measurement=104
compound=C/C(=N/N=C(N)N)c1ccc(Cl)cc1 measured_on="NCI-H226 lung" unit_abbrev=% observed_measurement=96
compound=NC(=O)NN=C(C1CC1)C1CC1 measured_on="NCI-H226 lung" unit_abbrev=% observed_measurement=109
compound=CCCCCCCCCCSc1ncnc2nc[nH]c12 measured_on="NCI-H226 lung" unit_abbrev=% observed_measurement=67.4
compound=COc1ccc(Cn2c(NCCCN(C)C)nc(=O)n(Cc3ccc(F)cc3)c2=O)cc1 measured_on="NCI-H226 lung" unit_abbrev=% observed_measurement=90.7
compound=Cn1cc(-c2nc(-c3c[nH]c4ncc(F)cc34)cs2)c2cccnc21 measured_on="NCI-H226 lung" unit_abbrev=% observed_measurement=98.8
compound="CCOC(=O)c1c(NC(=O)C2CCCCC2C(=O)O)sc2c1CCCC2 (stereo not given)" measured_on="NCI-H226 lung" unit_abbrev=% observed_measurement=95.5
compound="Cc1cc2c(C#N)n3c(c2cc1C)C(=O)C(c1ccccc1)Oc1ccccc1-3 (stereo not given)" measured_on="NCI-H226 lung" unit_abbrev=% observed_measurement=34.6
compound=OCc1nnn(-c2ccccc2)c1CO measured_on="NCI-H226 lung" unit_abbrev=% observed_measurement=114
compound="COc1cc(C2C=C(c3ccc(C)cc3)Nc3nc(SC)[nH]c(=O)c32)ccc1Oc1ccnc2cc(Cl)ccc12 (stereo not given)" measured_on="NCI-H226 lung" unit_abbrev=% observed_measurement=79.7
compound=CCC[C@H](N[C@@H](C)C(=O)N1[C@H](C(=O)O)C[C@@H]2CCCC[C@@H]21)C(=O)OCC measured_on="NCI-H226 lung" unit_abbrev=% observed_measurement=105
compound=COC(=O)[C@]12CC[C@@H](C)[C@H](C)[C@@H]1C1=CC[C@@H]3[C@@]4(C)C[C@@H](OC(=O)c5ccco5)[C@H](O)[C@@](C)(CO)[C@@H]4[C@H](O)C[C@@]3(C)[C@]1(C)CC2 measured_on="NCI-H226 lung" unit_abbrev=% observed_measurement=-53.4
compound=O=C(/C(=N/O)S(=O)(=O)c1ccccc1)c1cccs1 measured_on="NCI-H226 lung" unit_abbrev=% observed_measurement=102
compound=CCCCCCCCCCCCNc1ncnc2[nH]ncc12 measured_on="NCI-H226 lung" unit_abbrev=% observed_measurement=72.9
compound="CO[C@H]1/C=C/O[C@@]2(C)Oc3c(C)c(O)c4c(O)c(c(/C=N/N5C(C)CN(Cc6ccccc6)CC5C)c(O)c4c3C2=O)NC(=O)/C(C)=C\\C=C\\[C@H](C)[C@H](O)[C@@H](C)[C@@H](O)[C@@H](C)[C@H](OC(C)=O)[C@@H]1C (stereo not given in full)" measured_on="NCI-H226 lung" unit_abbrev=% observed_measurement=68.1
compound=COc1cc(-c2cc(C(=O)Nc3nc4ccccc4s3)nc3cc(-c4ccccc4)nn23)cc(OC)c1OC measured_on="NCI-H226 lung" unit_abbrev=% observed_measurement=70.2
compound=Nc1ccc(C2=Nc3cccc4cccc(c34)S2)cc1 measured_on="NCI-H226 lung" unit_abbrev=% observed_measurement=59.3
compound=S=C(Nc1ccc(C2=NCCN2)cc1)Nc1ccc(C2=NCCN2)cc1 measured_on="NCI-H226 lung" unit_abbrev=% observed_measurement=86.8
compound=COc1ccc(Cn2cc3c(c2-c2ccccc2)CCc2cncnc2-3)cc1 measured_on="NCI-H226 lung" unit_abbrev=% observed_measurement=72.1
compound=COc1ccc(C(=O)Nc2nc(-c3ccc(Cl)cc3)cs2)cc1 measured_on="NCI-H226 lung" unit_abbrev=% observed_measurement=95.6
compound="Oc1ccc(Cc2ccc(O)c(C3CC(c4ccc(Cl)cc4)=NN3)c2)cc1C1CC(c2ccc(Cl)cc2)=NN1 (stereo not given)" measured_on="NCI-H226 lung" unit_abbrev=% observed_measurement=53.6
compound=C/C(=N\N1CC(=O)NC1=O)c1ccc([N+](=O)[O-])o1 measured_on="NCI-H226 lung" unit_abbrev=% observed_measurement=106
compound=COc1ccccc1[C@H]1c2[nH]c3ccccc3c2C[C@H]2C(=O)N(CCCCCCC(=O)NO)CC(=O)N12 measured_on="NCI-H226 lung" unit_abbrev=% observed_measurement=91.6
compound=COc1ccc(-c2c(N)noc2-c2cc(OC)c3c(c2)OCCO3)cc1 measured_on="NCI-H226 lung" unit_abbrev=% observed_measurement=-17.1
compound=COc1ccc(/C=C2\COc3ccc(O)c(O)c3C2=O)cc1OC measured_on="NCI-H226 lung" unit_abbrev=% observed_measurement=46.6
compound=Cc1ccccc1NC(=O)c1cc2ccccc2cc1O measured_on="NCI-H226 lung" unit_abbrev=% observed_measurement=77.1
compound=CN(CC(=O)N(Cc1ccc(C2CCCCC2)cc1)c1ccc(C(=O)O)cc1)S(=O)(=O)c1c(F)c(F)c(F)c(F)c1F measured_on="NCI-H226 lung" unit_abbrev=% observed_measurement=97.4
compound=C/C(=C\CCc1ccoc1)CC/C=C(\C)CCCN1CCC(CO)CC1 measured_on="NCI-H226 lung" unit_abbrev=% observed_measurement=74.9
